Source: the supplement of paper PMC10567573

B1: MFF (parent)
chain: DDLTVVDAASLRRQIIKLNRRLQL

# Variants of: B1
# assay notes: protein stability index of a GFP-peptide fusion (GPS, HEK-293T) (PSI 1-6); higher = more stable;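 note: lentivirally expressed fusions sorted by FACS into six bins by GFP to DsRed ratio, PSI derived from sequencing read proportions per bin multiplied by bin number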
# test parameters: c terminus: a fixed tail appended
For each of the variants below, state its protein stability index.
Simply state the number, no unit and no words.

Looking for the measured protein stability index of "V6Q" , can you help?
1.9

Try "R20A" next.
1.9

Try "R12K" next.
2.01

Try "V6E" next.
2.08

Try "V6D" next.
2.3

Try "L3D" next.
2.58

Try "Q23H" next.
1.5

Try "K17D" next.
1.85

Try "L22F" next.
2.36

Try "V6A" next.
2.91

Try "R20S" next.
1.96

Try "A8L" next.
2.58

Try "K17C" next.
2.44

Try "S10N" next.
2.28

Try "N19W" next.
2.86

Try "D1P" next.
2.05

Try "T4K" next.
2.15

Try "K17L" next.
2.37

Try "A8C" next.
1.93

Try "L18K" next.
3.31

Try "V6W" next.
2.4

Try "L22S" next.
3.6

Try "D1T" next.
1.78

Try "R13K" next.
2.17

Try "N19S" next.
2.38

Try "D7Q" next.
2.17

Try "L3G" next.
2.58

Try "L18M" next.
2.38

Try "Q23I" next.
2.14
